Test: Oral cassette dosing PK/BBB studies
Format: in vivo, male Sprague-Dawley rats
Details: oral cassette dosing, male Sprague-Dawley rats, AUC normalized to 1 mg/kg dose
property label: AUC brain* (µg·h/mL)

molecule	property label	reported result
CNC(c1cn(C)c(C)c(O)c1=O)C(F)(F)F (stereo not drawn) [Apo7056]	AUC brain*	0.77
Cc1c(O)c(=O)ccn1CC(F)(F)F [Apo6995]	AUC brain*	0.30
CN(C)C(c1c(O)c(=O)ccn1C)C(F)(F)F (stereo not drawn) [Apo7041]	AUC brain*	0.45
CN(C)Cc1c(O)c(=O)ccn1CC(F)(F)F [Apo7067]	AUC brain*	0.74
Cn1ccc(=O)c(O)c1CC(F)F [Apo7080]	AUC brain*	0.7
Oc1c(I)cc(Cl)c2cccnc12 [Clioquinol, reference compound]	AUC brain*	0.042

====

// reported pKa per item
Test: pKa determination by spectrophotometric titration
Format: physicochemical
Settings: 0.1 M NaCl solution, amino group of the ligand; read-out: pKa (amine)
property label: pKa

compound	reported result
CN(C)Cc1c(O)c(=O)ccn1CC(F)(F)F	6.1
Cc1c(O)c(=O)c(C(N2CCOCC2)C(F)(F)F)cn1C (stereo not shown)	2.5
O=c1ccn(CC(F)(F)F)c(CN2CCOCC2)c1O	4.2
CN(C)C(c1c(O)c(=O)ccn1C)C(F)(F)F (stereo not shown)	3.5

====

Test: Fe speciation plot (HySS)
Type: physicochemical
Details: Fe:ligand 1:10, [Fe]=1×10^−6 M, [L]=1×10^−5 M
property label: % FeL3H2 (species 132) at pH 7.4 (%)

compound	property label	reported result
CNC(c1cn(C)c(C)c(O)c1=O)C(F)(F)F (stereo not shown)	% FeL3H2 (species 132) at pH 7.4	0.0
O=c1ccn(CC(F)(F)F)c(CN2CCOCC2)c1O	% FeL3H2 (species 132) at pH 7.4	0.0
Cc1c(O)c(=O)c(C(N2CCOCC2)C(F)(F)F)cn1C (stereo not shown)	% FeL3H2 (species 132) at pH 7.4	0.0
CN(C)Cc1c(O)c(=O)ccn1CC(F)(F)F	% FeL3H2 (species 132) at pH 7.4	24.6

====

Assay: Stepwise formation constants for Fe-ligand system by titration in 0.1M NaCl
Format: physicochemical
Details: 0.1 M NaCl, spectrophotometric titration
Property: Log β111 (Fe3+); scope: individual compounds
property label: Log β111 (Fe3+)

compound	reported result
CN(C)Cc1c(O)c(=O)ccn1CC(F)(F)F	20.0
CNC(c1cn(C)c(C)c(O)c1=O)C(F)(F)F (centres unmarked)	18.7
CN(C)C(c1c(O)c(=O)ccn1C)C(F)(F)F (centres unmarked)	18.1
O=c1ccn(CC(F)(F)F)c(CN2CCOCC2)c1O	18.4
Cc1c(O)c(=O)c(C(N2CCOCC2)C(F)(F)F)cn1C (centres unmarked)	15.9

====

Assay: pKa determination by spectrophotometric titration
Assay type: physicochemical
Details: ligand, spectrophotometric titration, Example 53
property label: pKa2(L)

molecule	reported result
O=c1ccn(CC(F)(F)F)c(CN2CCOCC2)c1O	4.2
CNC(c1cn(C)c(C)c(O)c1=O)C(F)(F)F (stereo not shown)	4.9
CN(C)Cc1c(O)c(=O)ccn1CC(F)(F)F	6.1
Cc1c(O)c(=O)c(C(N2CCOCC2)C(F)(F)F)cn1C (stereo not shown)	2.5

====

Assay: Stepwise formation constants for Fe-ligand system by titration in 0.1M NaCl
Type: physicochemical
Conditions: 0.1 M NaCl, spectrophotometric titration
Log β122 (Fe3+) listing for selected compounds.

compound	Log β122 (Fe3+)
CN(C)C(c1c(O)c(=O)ccn1C)C(F)(F)F (centres unmarked) [Apo7041]	35.0
CN(C)Cc1c(O)c(=O)ccn1CC(F)(F)F [Apo7067]	38.7
O=c1ccn(CC(F)(F)F)c(CN2CCOCC2)c1O [Apo7323]	34.9
Cc1c(O)c(=O)c(C(N2CCOCC2)C(F)(F)F)cn1C (centres unmarked) [Apo7435]	30.4
CNC(c1cn(C)c(C)c(O)c1=O)C(F)(F)F (centres unmarked) [Apo7056]	35.9

====

Tested on: human neuroblastoma MC-65 cells
Assay: cells
Conditions: Homo sapiens, MC65, 48 h, read-out: TH (threshold protective concentration)
Examples of molecules with documented minimal effective concentration follow.

molecule	assay target	minimal effective concentration
Cn1cc(Cl)c(=O)c(O)c1CC(F)(F)F [Apo7066]	human neuroblastoma MC-65 cells	0.1 µM
CN(C)C(c1c(O)c(=O)ccn1C)C(F)(F)F (stereo not drawn) [Apo7041]	human neuroblastoma MC-65 cells	0.1 µM
Cn1ccc(=O)c(O)c1C(C(F)F)N1CCCCC1 (stereo not drawn) [Apo7319]	human neuroblastoma MC-65 cells	1 µM
Cc1cc(=O)c(O)c(CN2CCOCC2)n1CC(F)(F)F [Apo7434]	human neuroblastoma MC-65 cells	1 µM
Cc1c(O)c(=O)c(C(N2CCCCC2)C(F)(F)F)cn1C (stereo not drawn) [Apo7054]	human neuroblastoma MC-65 cells	0.1 µM
CN1CCN(C(c2c(O)c(=O)ccn2C)C(F)(F)F)CC1 (stereo not drawn) [Apo7073]	human neuroblastoma MC-65 cells	0.1 µM

====

Assay: pKa determination by spectrophotometric titration
Format: physicochemical
Conditions: cumulative ligand protonation, Example 53
Catalogue of molecules with associated Logβ012

molecule	Logβ012
CN(C)Cc1c(O)c(=O)ccn1CC(F)(F)F	15.7
CNC(c1cn(C)c(C)c(O)c1=O)C(F)(F)F (stereo not shown)	14.7
Cc1c(O)c(=O)c(C(N2CCOCC2)C(F)(F)F)cn1C (stereo not shown)	12.3
O=c1ccn(CC(F)(F)F)c(CN2CCOCC2)c1O	13.4

====

Recorded Logβ011 values for a group of compounds are listed next.
Assay: pKa determination by spectrophotometric titration
Format: physicochemical
Settings: cumulative ligand protonation, Example 53
Method: The pKa values of ligands can be determined by spectrophotometric titration when both the conjugated acid and base absorb in the UV-visible region. […] The sample solution was titrated against standard hydrochloric acid solutions at 22° C. to reach pH 1.11. After each addition of acid the solution was allowed to equilibrate until a constant pH reading was reached. The pH and the UV-Vis spectrum were recorded for each measurement. […] Thus, 30 measurements were recorded. […]
property label: Logβ011

compound	reported result
CN(C)Cc1c(O)c(=O)ccn1CC(F)(F)F	9.6
CNC(c1cn(C)c(C)c(O)c1=O)C(F)(F)F (stereo not shown)	9.8
O=c1ccn(CC(F)(F)F)c(CN2CCOCC2)c1O	9.2
Cc1c(O)c(=O)c(C(N2CCOCC2)C(F)(F)F)cn1C (stereo not shown)	9.8

====

System: SH-SY5Y human neuroblastoma cells
Conditions: H2O2-treated cells, viability below 80%
Description: Hydrogen peroxide (H2O2) is a major ROS (reactive oxidative species), which causes oxidative stress, and can induce apoptosis in many different cell types. […] Cells were routinely treated with the test compound, at a pre-determined range of concentrations, in the presence or absence of 50 μM hydrogen peroxide in a basal medium containing no FBS for 16-22 h. […]

compound	units text	CC2 (cytotoxic concentration)
Cc1[nH]cc(C(N2CCOCC2)C(F)(F)F)c(=O)c1O (stereo not shown)	µM	320
Cc1cc(=O)c(O)c(C(N2CCN(c3ccccc3)CC2)C(F)(F)F)n1C (stereo not shown)	µM	80
CNC(=O)[C@@H](C)NC(c1c(O)c(=O)ccn1C)C(F)(F)F (stereo partly shown)	µM	100
Cn1cc(Cl)c(=O)c(O)c1C(N1CCCCC1)C(F)(F)F (stereo not shown)	µM	10
Cn1ccc(=O)c(O)c1C(N1CCOCC1)C(F)(F)F (stereo not shown)	µM	320
Cc1c(O)c(=O)ccn1CC(F)(F)F	µM	320
Cn1cc(Cl)c(=O)c(O)c1CC(F)(F)F	µM	160
Cc1c(O)c(=O)c(C(N2CCOCC2)C(F)(F)F)cn1C (stereo not shown)	µM	320
Cn1ccc(=O)c(O)c1C(C(F)F)N1CCCCC1 (stereo not shown)	µM	320
CN(C)C(c1c(O)c(=O)ccn1C)C(F)(F)F (stereo not shown)	µM	320
Cc1cc(=O)c(O)c(C(N2CCN(Cc3ccccc3)CC2)C(F)(F)F)n1C (stereo not shown)	µM	320
Cc1cc(=O)c(O)c(C(N2CCN(c3ccccn3)CC2)C(F)(F)F)n1C (stereo not shown)	µM	80
Cc1cc(=O)c(O)cn1CC(F)(F)F	µM	640
Cc1cc(=O)c(O)c(CN2CCOCC2)n1CC(F)(F)F	µM	320
Cc1cc(=O)c(O)c(C(N2CCOCC2)C(F)(F)F)n1C (stereo not shown)	µM	320
CN(C)Cc1cc(=O)c(O)c(C(O)C(F)(F)F)n1C (stereo not shown)	µM	320
O=c1ccn(CC(F)(F)F)c(CN2CCOCC2)c1O	µM	320
Cn1ccc(=O)c(O)c1C(C(F)F)N1CCN(c2ccccn2)CC1 (stereo not shown)	µM	320
Cc1cc(=O)c(O)c(CN2CCCCC2)n1CC(F)(F)F	µM	80
C#CCN(C)C(c1c(O)c(=O)ccn1C)C(F)(F)F (stereo not shown)	µM	80
Cc1c(Cl)c(=O)c(O)c(C(N(C)C)C(F)(F)F)n1C (stereo not shown)	µM	640
